# Measured on: Voltage-gated potassium channel subunit beta-2 (Rattus norvegicus) (UniProt P62483)
# Sequence (P62483 whole entry, looked up): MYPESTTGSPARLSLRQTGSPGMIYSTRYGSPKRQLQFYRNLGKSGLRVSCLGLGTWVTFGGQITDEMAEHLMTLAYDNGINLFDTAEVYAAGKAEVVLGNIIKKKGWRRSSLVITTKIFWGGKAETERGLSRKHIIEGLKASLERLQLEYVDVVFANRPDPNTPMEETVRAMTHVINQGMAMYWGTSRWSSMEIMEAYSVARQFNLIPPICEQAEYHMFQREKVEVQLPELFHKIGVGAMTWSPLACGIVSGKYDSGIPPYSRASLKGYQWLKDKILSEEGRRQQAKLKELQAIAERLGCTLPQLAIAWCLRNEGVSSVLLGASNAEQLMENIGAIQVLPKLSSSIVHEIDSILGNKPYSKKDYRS
# Procedure summary: enhancers of rat Kvbeta2 NADPH turnover – biochemical, NADPH fluorescence, primary screen (AID 623);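 further: fluorescence intensity change per second fitted from 20 to 320 s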
# Measurement parameters: Recombinant KvBeta, NADPH fluorescence decrease slope, 10 min; at 10 µM; stronger effect = lower value
Assay metric: NADPH fluorescence slope

- Compound: "O=c1[nH]c(/C(=N\\O)c2ccccc2)no1"
  Assay metric: "NADPH fluorescence slope"
  Assay result: -0.000106
- Compound: "NC(=O)c1c(NC(=O)CN2CCCC2)sc2c1CCCC2"
  Assay metric: "NADPH fluorescence slope"
  Assay result: "-1.9e-05"
- Compound: "Cc1csc(NC(=O)CCCSc2nc3ccccc3s2)n1"
  Assay metric: "NADPH fluorescence slope"
  Assay result: "-2.4e-05"
- Compound: "O=C(c1ccc(Cl)s1)N1CCN(c2nc3ccccc3s2)CC1"
  Assay metric: "NADPH fluorescence slope"
  Assay result: "2e-05"
- Compound: "CCOc1cc(NC(=O)c2ccco2)c(OCC)cc1NC(=O)CCC(=O)NCc1cccnc1"
  Assay metric: "NADPH fluorescence slope"
  Assay result: "1.7e-05"
- Compound: "O=C(CSc1ncnc2c1oc1ccccc12)Nc1ccccc1F"
  Assay metric: "NADPH fluorescence slope"
  Assay result: "3.9e-06"
- Compound: "CCN(CCCNC(=O)CCNC(=O)Cn1ccc2ccccc2c1=O)c1ccccc1"
  Assay metric: "NADPH fluorescence slope"
  Assay result: "-8.2e-06"
- Compound: "CC12CCC(C(=O)N3CCCCC3)(CC1=O)C2(C)C (configuration not stated)"
  Assay metric: "NADPH fluorescence slope"
  Assay result: "8.8e-06"
- Compound: "CCCn1nc(NC(=O)c2cccs2)c2cc3cc(OC)ccc3nc21"
  Assay metric: "NADPH fluorescence slope"
  Assay result: "2.2e-05"
- Compound: "CCCN1C2CCCC1CC(NC(=O)Nc1cccc(C(C)=O)c1)C2 (configuration not stated)"
  Assay metric: "NADPH fluorescence slope"
  Assay result: "1.7e-05"
- Compound: "COc1ccccc1CN1CC(C(=O)NCc2cccnc2)CC1=O (configuration not stated)"
  Assay metric: "NADPH fluorescence slope"
  Assay result: "-2.4e-05"
- Compound: "CCOC(=O)c1cc2c(=O)n3ccccc3nc2n(CC(C)C)c1=NC(=O)c1ccco1"
  Assay metric: "NADPH fluorescence slope"
  Assay result: "-5.6e-06"

====

# Procedure summary: inhibitors of TNFa-induced NFkB p65 translocation, primary screen, imaging, HUVEC, MLSMR starter and 10KST1 sets (AID 438);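 further: compound added about 3h40 before a 20 min TNFalpha stimulation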
# Measurement parameters: HUVEC TNFa-induced p65 nuclear translocation; measured here: nuclei count (cytotoxicity indicator), at 2.08 µM
I would appreciate it if you labelled entries true when cell count is 500 or higher, otherwise false.

- Compound: "O=C(c1ccc2c(c1)c(=O)oc1ccccc12)N1CCCCC1"
  Class label: "false"
- Compound: "Cc1cccc(C2CC(c3ccc(Cl)cc3)Nc3nc(N)nn32)c1 (stereo not drawn)"
  Class label: "true"
- Compound: "COc1ccc(C(=O)c2ccccc2)c(O)c1"
  Class label: "true"
- Compound: "O=S(=O)(NCc1ccc(Cl)cc1)c1cnc[nH]1"
  Class label: "false"
- Compound: "O=C(CC(SCCO)c1ccc2c(c1)OCO2)c1ccco1 (stereo not drawn)"
  Class label: "true"
- Compound: "COCCn1c(-c2ccco2)nc2nc3ccccc3nc21"
  Class label: "false"
- Compound: "Cc1ccc(S(=O)(=O)N2CCC(C(=O)N3CCC[C@H]3C(=O)NCc3ccccc3)CC2)cc1"
  Class label: "false"
- Compound: "CN(C)S(=O)(=O)c1ccc(C(=O)NCc2cccs2)cc1"
  Class label: "false"
- Compound: "CCCCCSc1nc2c(cnn2-c2ccccc2)c(=O)[nH]1"
  Class label: "false"
- Compound: "CC1=CCC2C(=O)N(c3nc(C)cc(C)n3)C(=O)C2C1 (stereo not drawn)"
  Class label: "false"
- Compound: "Cc1cccc(C2CC(c3ccccc3)Nc3nc(N)nn32)c1 (stereo not drawn)"
  Class label: "true"
- Compound: "Cc1cc(C)nc(SC2=CS(=O)(=O)c3ccccc32)n1"
  Class label: "false"
- Compound: "Cc1ccccc1N(C)S(=O)(=O)c1ccc2[nH]cc(C(=O)NCC3CCCO3)c(=O)c2c1 (stereo not drawn)"
  Class label: "true"
- Compound: "O=C(c1ccco1)N1CCN(C(=O)c2cc3c(s2)-c2ccccc2OC3)CC1"
  Class label: "true"
- Compound: "CC(=O)c1sc(NC(=O)C2COc3ccccc3O2)nc1C (stereo not drawn)"
  Class label: "true"
- Compound: "COC(=O)c1ccc(NC(=O)C(C)N2C(=O)c3ccccc3C2=O)cc1 (stereo not drawn)"
  Class label: "true"
- Compound: "CC1(C)CNC(=O)CC(C)(C)N1O"
  Class label: "false"
- Compound: "CCc1ccccc1N1CC23C=CC(O2)C(C(=O)O)C3C1=O (stereo not drawn)"
  Class label: "true"
- Compound: "CC1CC(=O)c2cnc(NCC3CCCO3)nc2C1 (stereo not drawn)"
  Class label: "true"
- Compound: "O=C(CSc1ccc2nnc(-c3ccccc3)n2n1)N1CCN(c2ccccc2)CC1"
  Class label: "true"
- Compound: "CCOC(=O)Cn1nnnc1C(C(C)C)N(Cc1cc2c(C)cc(C)cc2[nH]c1=O)C1CCCC1 (stereo not drawn)"
  Class label: "true"
- Compound: "Cc1nn(C(=O)c2ccc3c(c2)OCO3)c(N)c1-c1ccccc1"
  Class label: "true"
- Compound: "Cc1nc2c(C(=O)O)cnn2c(C)c1Cc1ccccc1F"
  Class label: "true"
- Compound: "COc1ccc2[nH]c(=O)c(CN(C(=O)c3cccnc3)c3ccccc3OC)cc2c1"
  Class label: "false"
- Compound: "C=C(C)Cn1c(N2CCN(CC)CC2)nc2c1c(=O)[nH]c(=O)n2C"
  Class label: "false"
- Compound: "CCCC(c1nnnn1Cc1ccc(OC)cc1)N1CCN(c2ccccc2OC)CC1 (stereo not drawn)"
  Class label: "false"
- Compound: "CSc1ccc(S(=O)(=O)Nc2cccc(F)c2)cc1"
  Class label: "false"
- Compound: "Cc1cc(C)c2c(n1)nn1c(N3CCN(c4cccc(Cl)c4)CC3)cc(C)nc21"
  Class label: "false"
- Compound: "COc1ccc(CN(C(=O)CSc2nnc(-c3ccccc3F)o2)c2ccc(F)cc2)cc1"
  Class label: "true"
- Compound: "CCC(Sc1nc2sc(C(=O)OC)c(C)c2c(=O)n1N)C(=O)NCC1CCCO1 (stereo not drawn)"
  Class label: "false"
- Compound: "Cc1cccc(Nc2nc3c(c(=O)n(C)c(=O)n3C)n2Cc2ccccc2)c1"
  Class label: "false"
- Compound: "CCOC(=O)C1CCN(S(=O)(=O)c2cccc(-c3csc(C)n3)c2)CC1"
  Class label: "false"
- Compound: "COc1cccc(-c2csc(N3CCN(CC(=O)Nc4ccc5c(c4)OCO5)CC3)n2)c1"
  Class label: "false"
- Compound: "S=c1[nH]nc(-c2ccco2)n1-c1cccc2ccccc12"
  Class label: "false"
- Compound: "CC(=O)Nc1c(-c2ccc(F)cc2)nc2ccccn12"
  Class label: "true"
- Compound: "O=c1[nH]c(SCc2ccccc2Cl)nc2c1CCCC2"
  Class label: "false"
- Compound: "CC(C)(C)C(=O)CCN1C(=O)C2(OCCO2)c2ccccc21"
  Class label: "true"
